Source listed as PubChem BioAssay (NCI).

- Tested on: TK-10 renal
- experimental-details: NCI-60 one-dose screen, 48 h (100 = growth as untreated, 0 = no growth, -100 = all killed)
- condition-set: 10 µM unless noted
This is part of a sample that, as a whole, favours compounds with a hit. Of some 83,000 tested, about 20% had one in any assay.
value-type: growth (%)
Your answer should be a plain number; it is taken to be in %.

Report growth for "O=C(Nc1nn(-c2ccc(Cl)cc2Cl)nc1-c1ccccc1)c1ccccc1" please.
117

Bench note: what growth did "Cn1ccc2c3c(ccc21)CC3=O" show?
124

Given the compound Cc1cccc(N2CCN(CC(O)COc3ccc(Cl)cc3)CC2)c1 (centres undefined) , what is its reported growth?
116

# growth lookup, item "COc1cc(C(=O)n2nc(N3CCN(C)CC3)c3cc(N)ccc32)cc(OC)c1OC"
59.1

---

- Tested on: A549/ATCC NSCLC
- experimental-details: NCI-60 one-dose screen, 48 h (100 = growth as untreated, 0 = no growth, -100 = all killed)
- condition-set: 10 µM unless noted
About 83,000 compounds went through this panel and 20% of them were active in at least one assay; those are over-represented in the sample as a whole.
Lab note: compare growth with 80%, writing TRUE if less and FALSE if equal or more.

Look over these answered cases.
Below 80% on growth? Entry CCn1cc(C(=O)N/N=C/c2cccs2)c(=O)c2cc(F)c(N3CCNC(C)C3)c(F)c21 (stereo unspecified)
TRUE

Dear colleague, could you confirm whether growth of "CC1=Nc2cnc(Nc3ccc(OCCN4CCCCC4)cc3)nc2Nc2ccccc21" falls below 80%? Thanks.
TRUE

Problem: For the compound "O=C1Nc2ccc(I)cc2C1=O" , is growth under 80%?
FALSE

For "COc1ccc(C(=O)Nc2ncc(Cc3cccc(Cl)c3)s2)cc1OC" , is the recorded growth below the cut-off of 80%?
TRUE

Lab note: growth threshold 80%. Does this compound come in strictly under it? "Clc1ccc(Sc2cnc(-c3ccccc3)o2)cc1"
FALSE

Lab note: growth threshold 80%. Does this compound come in strictly under it? COC1C[C@H](O[C@@H]2C[C@H](O[C@@H]3C[C@H](O[C@@H]4C(=O)c5c(cc6cc(O[C@H]7C[C@@H](O[C@H]8C[C@@H](O)[C@H](O)C(C)O8)[C@H](O)C(C)O7)c(C)c(O)c6c5O)C[C@H]4C(OC)C(=O)[C@@H](O)[C@@H](C)O)OC(C)[C@H]3O)OC(C)[C@@H]2O)OC(C)[C@@H]1O (stereo partly specified)
TRUE

New cases:
Determine if "Cn1c(=O)c2[nH]c(N/N=C/c3ccccc3Br)nc2n(C)c1=O" shows growth strictly lower than 80%.
FALSE

Lab note: confirm whether the reported growth for this compound is below 80%, equality not counting. compound: CC(C)NC1CCC(Nc2ccnc3cc(Cl)ccc23)CC1 (stereo unspecified)
FALSE

I'd appreciate it if you could check whether "COc1cc2oc(-c3cccc(NC(=O)c4cccc(Br)c4)c3)cc(=O)c2c(OC)c1OC" has growth smaller than 80%.
TRUE

Check if growth falls below 80% for "C#CCOc1cccc(Nc2ncnc3c(NC(=O)C=C)cccc23)c1" .
TRUE

growth strictly < 80% for this compound? "CCOC(=O)C1=NN(c2ccccc2)C(=O)/C1=C\N1C(=O)CC(=O)NC1=S"
FALSE

Threshold test, growth < 80%: "Brc1ccc2[nH]cc(-c3nonc3-c3c[nH]c4ccccc34)c2c1"
TRUE

Would you kindly verify if growth of CCc1ccc(C(=O)/C=C/C23c4ccccc4C(c4ccccc42)C2C(=O)NC(=O)C23)cc1 (stereo unspecified) is strictly less than 80%?
TRUE

hey, is growth for "O=C(Nc1nn(-c2ccc(Cl)cc2Cl)nc1-c1ccccc1)c1ccccc1" lower than 80% or not?
FALSE

Is it true that growth reported for "CCCc1cc(NC)nc(S(=O)(=O)CC)n1" is less than 80%?
FALSE

growth strictly < 80% for this compound? "C#Cc1ccc(NC(=O)c2ccc(/C=C/C(=O)c3nccn3C)cc2)cc1"
TRUE

---

- Tested on: MOLT-4 leukemia
- experimental-details: NCI-60 one-dose screen, 48 h
- condition-set: 10 µM unless noted
This is part of a sample that, as a whole, favours compounds with a hit. Of some 83,000 tested, about 20% had one in any assay. Calls of active or inactive are those of the source. How the source made its calls: active means growth percent below 10; inactive means the rest.
Lab note: assign the record to one of true (1) = active, false (0) = inactive

Illustrative cases are given below, each with its answer.
Recorded test call requested for "N#C/C(=C\c1ccc(-c2ccc(Cl)cc2)o1)C(=O)Nc1ncc(Cc2ccc(Cl)cc2)s1"
false (0)

Outcome logged for "CCOc1ccc(NC(=O)CSc2oc(-c3ccccc3)nc2S(=O)(=O)c2ccc(F)cc2)cc1" in this assay:
false (0)

Answer briefly: the call reported for "CCc1nc2c(=O)[nH]cnc2o1" in this assay.
false (0)

Test call, this compound: "CCOC(=O)c1cc2c(=O)oc3ccccc3c2oc1=O"
false (0)

What is the recorded call for this compound in the test? "O=C1c2ccc3c4ccc5c6c(ccc(c7ccc(c2c37)C(=O)N1CCC[P+](c1ccccc1)(c1ccccc1)c1ccccc1)c64)C(=O)N(CCC[P+](c1ccccc1)(c1ccccc1)c1ccccc1)C5=O"
false (0)

Continuing:
Status in this test for "O=C(Nn1c2c(sc1=Nc1ccccc1)C(=O)c1ccccc1C2=O)c1cc2ccc1CCc1ccc(cc1)CC2" ?
false (0)

What classification did "CCCCCOc1ccc(C(=O)/C(Br)=C/C(=O)O)cc1" end up with in this test?
false (0)

For this compound, state the assay outcome: "O=C1Nc2ccc(Br)cc2/C1=N/c1n[nH]c(=S)s1"
false (0)

// param item: "N#Cc1c(NC(=O)c2ccccc2)sc2c1CCC(=O)C2" ; yields the recorded call
true (1)

Please state the recorded outcome for this compound: "Cc1ccc(-c2nn(-c3ccccc3)cc2C=C2C(=O)ON=C2C(C)C)cc1"
true (1)

# fetch the recorded call for "CCCCC(=O)Nc1ncc(Cc2ccc(Cl)cc2)s1" here
false (0)

---

- Test system: MCF7 breast
- experimental-details: NCI-60 one-dose screen, 48 h (100 = growth as untreated, 0 = no growth, -100 = all killed)
- condition-set: 10 µM unless noted
This is part of a sample that, as a whole, favours compounds with a hit. Of some 83,000 tested, about 20% had one in any assay.
Decision: growth >= 80% yields YES, all other cases yield NO.

Assess whether reported growth for "Cc1ccc(CNc2ccc(Cl)cc2NCc2ccc(C)c(O)c2)cc1O" sits at 80% or higher.
NO

Is reported growth greater than or equal to 80% here: "Cc1cc(=O)[nH]c2c(C#N)cnn12"
YES

Could you tell me if the measured growth of "CCOC(=O)c1c2c(n3ccc(C)cc13)C(=O)c1ccccc1C2=O" reaches 80% or more?
YES

Given "C[C@H](NC(=O)[C@@H](C)N)[C@H](Oc1ccc2c(cnn2-c2ccc(F)cc2)c1)c1ccc2c(c1)OCCO2" , state whether its growth is at least 80%.
NO

More entries:
// inclusive: growth at least 80%? input: CCCC(O)Cn1ncc(C(=O)OCC)c1NC(=O)NCc1ccccc1F (stereo unspecified)
YES

API: above_or_equal(metric=growth, cutoff=80%) for item "CN1CCN(C(=O)c2ccc(NC(=O)Nc3ccc(-c4nc(N5CCOCC5)c5cccn5n4)cc3)cc2)CC1"
NO

Does "Oc1ccc(CN2CCC(N3CCCCC3)CC2)c2cccnc12" have a reported growth of at least 80%?
NO

Could you verify whether the entry "O=[N+]([O-])c1ccc(N/N=C(/C(=N/Nc2ccc([N+](=O)[O-])cc2)c2ccccc2)c2ccccc2)cc1" shows growth of no less than 80%?
NO

Please check the record "COc1ccc2cc(-c3ccc(NC(C)=O)c(=O)o3)ccc2c1" and state if its growth is at or above 80%.
YES

I'd appreciate it if you could say whether CC12CCC3c4ccccc4CCC3(CO1)C2 (stereo unspecified) has growth at least equal to 80%.
YES

Dear colleague, could you confirm whether "CN(CCn1sc(=O)n(Cc2ccccc2)c1=O)Cc1ccc2c(Cl)cc(Cl)c(O)c2n1" has growth at or above 80%?
NO

Determine whether measured growth meets or exceeds 80% for "O=C1/C(=C/c2ccc(Cl)cc2)COc2ccc(O)c(O)c21"
NO

Say whether "Cc1ccc(-c2cc(-c3ccc(Cl)cc3)nc(NC(=O)c3cccnc3)n2)cc1" shows growth of 80% or more.
YES

Item "CCOC(=O)C1=NN(c2ccccc2)C(=O)/C1=C\N1C(=O)CC(=O)NC1=S" with growth of 80% or above?
YES

For this compound, is measured growth 80% or higher? COc1cccc(CNc2ncnc3c2ncn3C2OC(CO)C(O)C2O)c1O (stereo unspecified)
NO

---

- Test system: MOLT-4 leukemia
- experimental-details: NCI-60 one-dose screen, 48 h
- condition-set: 10 µM unless noted
This is part of a sample that, as a whole, favours compounds with a hit. Of some 83,000 tested, about 20% had one in any assay. Active and inactive are the calls of the source. Rule for the calls: active = growth percent below 10; inactive = the rest.
Just give me one of these, please: active, inactive

Previously resolved entries follow.
// return assay outcome for "CN(CCOc1ccc(C#N)cc1)CCOc1ccc(C#N)cc1"
inactive

Can you look up the reported call for "Oc1c(Cl)cc(Cl)c2ccc(Cn3cc(-c4ccc(C(F)(F)F)cc4)nn3)nc12" for me?
active

Next item in the queue.
What did this assay record as the result for "C#COc1cccc(Nc2ncnc3ncc(NC(=O)CCl)cc23)c1" ?
inactive
